Reference source: ChEMBL document CHEMBL3091333

- systemName: Platelet-derived growth factor receptor alpha (Homo sapiens)
- Sequence (P16234 whole entry): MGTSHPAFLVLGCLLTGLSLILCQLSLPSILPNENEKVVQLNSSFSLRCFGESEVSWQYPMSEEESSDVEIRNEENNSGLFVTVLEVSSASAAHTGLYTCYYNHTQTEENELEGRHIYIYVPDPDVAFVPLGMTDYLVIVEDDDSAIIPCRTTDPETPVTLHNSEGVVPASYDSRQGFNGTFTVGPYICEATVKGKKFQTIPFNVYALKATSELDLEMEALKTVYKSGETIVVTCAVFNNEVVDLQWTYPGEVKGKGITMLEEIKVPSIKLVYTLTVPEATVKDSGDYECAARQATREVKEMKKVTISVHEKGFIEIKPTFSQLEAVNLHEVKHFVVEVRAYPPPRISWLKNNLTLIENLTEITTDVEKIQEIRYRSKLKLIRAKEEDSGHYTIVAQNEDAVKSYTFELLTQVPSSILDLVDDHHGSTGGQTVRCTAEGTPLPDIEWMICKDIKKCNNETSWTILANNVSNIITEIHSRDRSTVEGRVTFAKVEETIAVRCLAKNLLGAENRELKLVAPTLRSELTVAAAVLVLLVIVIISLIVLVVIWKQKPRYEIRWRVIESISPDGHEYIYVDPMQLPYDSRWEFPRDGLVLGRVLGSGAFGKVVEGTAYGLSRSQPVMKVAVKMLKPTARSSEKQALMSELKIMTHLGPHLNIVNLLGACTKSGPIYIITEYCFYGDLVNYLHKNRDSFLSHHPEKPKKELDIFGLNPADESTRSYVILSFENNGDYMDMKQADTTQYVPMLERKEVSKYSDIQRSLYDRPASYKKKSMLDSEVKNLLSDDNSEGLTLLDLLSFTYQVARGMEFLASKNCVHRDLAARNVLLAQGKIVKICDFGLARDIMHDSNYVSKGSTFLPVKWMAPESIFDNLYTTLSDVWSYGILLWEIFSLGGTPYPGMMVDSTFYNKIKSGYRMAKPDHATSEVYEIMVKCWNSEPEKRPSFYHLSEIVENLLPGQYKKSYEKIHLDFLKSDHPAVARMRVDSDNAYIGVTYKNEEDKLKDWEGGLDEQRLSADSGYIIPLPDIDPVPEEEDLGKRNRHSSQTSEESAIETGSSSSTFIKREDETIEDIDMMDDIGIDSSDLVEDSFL
- assayRemarks: Inhibition of recombinant PDGFR-alpha (unknown origin) using poly (Glu, Tyr) 4:1 as substrate after 60 mins by ELISA
Parameter: IC50. Scope: all listed entries.
metricName: IC50

>>> observed("CCN(CC)CCCNC(=O)Nc1cc2c(Nc3ccc(F)c(Cl)c3)ncnc2cc1O[C@H]1CCOC1")
"> 10 µM"
>>> observed("O=C(NCCN1CCCC1)Nc1cc2c(Nc3ccc(F)c(Cl)c3)ncnc2cc1O[C@H]1CCOC1")
"> 10 µM"

###

Epidermal growth factor receptor (Homo sapiens, UniProt P00533): reported pIC50 for various compounds.
Sequence (P00533 whole entry): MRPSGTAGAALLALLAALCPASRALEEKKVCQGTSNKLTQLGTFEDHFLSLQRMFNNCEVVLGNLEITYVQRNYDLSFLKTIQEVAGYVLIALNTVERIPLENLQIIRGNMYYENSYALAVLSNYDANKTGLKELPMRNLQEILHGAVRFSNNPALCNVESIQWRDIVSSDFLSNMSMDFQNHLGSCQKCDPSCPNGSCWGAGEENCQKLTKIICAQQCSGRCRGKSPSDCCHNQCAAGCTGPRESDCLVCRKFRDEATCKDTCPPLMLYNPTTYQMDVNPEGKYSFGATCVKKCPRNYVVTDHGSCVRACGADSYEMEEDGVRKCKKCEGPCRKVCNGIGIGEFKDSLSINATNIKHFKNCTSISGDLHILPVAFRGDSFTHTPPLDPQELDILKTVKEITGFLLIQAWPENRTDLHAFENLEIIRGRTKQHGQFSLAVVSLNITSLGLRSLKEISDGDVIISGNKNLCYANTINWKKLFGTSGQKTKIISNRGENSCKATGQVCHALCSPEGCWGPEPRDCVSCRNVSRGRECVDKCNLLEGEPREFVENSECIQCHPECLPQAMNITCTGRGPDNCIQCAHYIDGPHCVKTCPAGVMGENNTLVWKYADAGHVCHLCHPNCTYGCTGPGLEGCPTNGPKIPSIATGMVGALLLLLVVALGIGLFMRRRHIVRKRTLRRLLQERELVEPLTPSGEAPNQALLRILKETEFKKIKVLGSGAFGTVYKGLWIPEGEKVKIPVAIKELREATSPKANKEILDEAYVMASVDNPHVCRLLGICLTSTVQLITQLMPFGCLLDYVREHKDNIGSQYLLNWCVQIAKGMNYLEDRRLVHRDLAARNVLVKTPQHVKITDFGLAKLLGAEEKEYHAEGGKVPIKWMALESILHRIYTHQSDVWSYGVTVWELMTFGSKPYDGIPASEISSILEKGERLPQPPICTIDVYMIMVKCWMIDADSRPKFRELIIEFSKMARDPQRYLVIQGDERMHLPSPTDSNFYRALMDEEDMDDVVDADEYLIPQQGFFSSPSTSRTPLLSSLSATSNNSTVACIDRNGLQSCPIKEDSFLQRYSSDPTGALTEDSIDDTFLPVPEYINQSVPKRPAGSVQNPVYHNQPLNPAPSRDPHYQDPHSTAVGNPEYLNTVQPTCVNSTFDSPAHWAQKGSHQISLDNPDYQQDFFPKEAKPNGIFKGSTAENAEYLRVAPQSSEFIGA
pIC50: −log10 of the molar value.
metricName: pIC50

>>> observed("O=C(Nc1cc2c(Nc3ccc(F)c(Cl)c3)ncnc2cc1O[C@H]1CCOC1)N1CC(O)C1")
6.27
>>> observed("CCN(CC)CCN(C)C(=O)Nc1cc2c(Nc3ccc(F)c(Cl)c3)ncnc2cc1O[C@H]1CCOC1")
6.30
>>> observed("CS(=O)(=O)CCNC(=O)Nc1cc2c(Nc3ccc(F)c(Cl)c3)ncnc2cc1O[C@H]1CCOC1")
7.39
>>> observed("O=C(Nc1cc2c(Nc3ccc(F)c(Cl)c3)ncnc2cc1O[C@H]1CCOC1)N1CCC(F)(F)C1")
5.80
>>> observed("O=C(Nc1cc2c(Nc3ccc(F)c(Cl)c3)ncnc2cc1O[C@H]1CCOC1)N1CCC(N2CCCC2)CC1")
6.58
>>> observed("CN(C)CCCNC(=O)Nc1cc2c(Nc3ccc(F)c(Cl)c3)ncnc2cc1O[C@H]1CCOC1")
7.62
>>> observed("O=C(Nc1cc2c(Nc3ccc(F)c(Cl)c3)ncnc2cc1O[C@H]1CCOC1)N1CCC(F)(F)CC1")
6.07
>>> observed("COC(CCNC(=O)Nc1cc2c(Nc3ccc(F)c(Cl)c3)ncnc2cc1O[C@H]1CCOC1)OC")
6.26
>>> observed("O=C(Nc1cc2c(Nc3ccc(F)c(Cl)c3)ncnc2cc1O[C@H]1CCOC1)N1CCCC(F)(F)C1")
6.05
>>> observed("CN(C)CCCN(C)C(=O)Nc1cc2c(Nc3ccc(F)c(Cl)c3)ncnc2cc1O[C@H]1CCOC1")
6.33
>>> observed("O=C(Nc1cc2c(Nc3ccc(F)c(Cl)c3)ncnc2cc1O[C@H]1CCOC1)N1CC(F)C1")
6.01
>>> observed("C#CCNC(=O)Nc1cc2c(Nc3ccc(F)c(Cl)c3)ncnc2cc1O[C@H]1CCOC1")
6.63
>>> observed("CN(C)CCNC(=O)Nc1cc2c(Nc3ccc(F)c(Cl)c3)ncnc2cc1O[C@H]1CCOC1")
6.20
>>> observed("O=C(Nc1cc2c(Nc3ccc(F)c(Cl)c3)ncnc2cc1O[C@H]1CCOC1)N1CCC(CCO)CC1")
6.52
>>> observed("CCN(CC)CCCNC(=O)Nc1cc2c(Nc3ccc(F)c(Cl)c3)ncnc2cc1O[C@H]1CCOC1")
7.49
>>> observed("O=C(Nc1cc2c(Nc3ccc(F)c(Cl)c3)ncnc2cc1O[C@H]1CCOC1)N1CCC(F)CC1")
6.16
>>> observed("O=C(NCCN1CCCCC1)Nc1cc2c(Nc3ccc(F)c(Cl)c3)ncnc2cc1O[C@H]1CCOC1")
6.78
>>> observed("CN(C)CCN(C)C(=O)Nc1cc2c(Nc3ccc(F)c(Cl)c3)ncnc2cc1O[C@H]1CCOC1")
6.55
>>> observed("O=C(NCCN1CCCC1)Nc1cc2c(Nc3ccc(F)c(Cl)c3)ncnc2cc1O[C@H]1CCOC1")
7.17
>>> observed("O=C(NCCN1CCOCC1)Nc1cc2c(Nc3ccc(F)c(Cl)c3)ncnc2cc1O[C@H]1CCOC1")
7.09
>>> observed("COCCCNC(=O)Nc1cc2c(Nc3ccc(F)c(Cl)c3)ncnc2cc1O[C@H]1CCOC1")
6.71
>>> observed("CCN(CC)CCNC(=O)Nc1cc2c(Nc3ccc(F)c(Cl)c3)ncnc2cc1O[C@H]1CCOC1")
6.44
>>> observed("COCCNC(=O)Nc1cc2c(Nc3ccc(F)c(Cl)c3)ncnc2cc1O[C@H]1CCOC1")
6.32
>>> observed("O=C(Nc1cc2c(Nc3ccc(F)c(Cl)c3)ncnc2cc1O[C@H]1CCOC1)N1CCN(CCO)CC1")
6.48
>>> observed("O=C(Nc1cc2c(Nc3ccc(F)c(Cl)c3)ncnc2cc1O[C@H]1CCOC1)N1CCC2(CC1)OCCO2")
5.77
>>> observed("CN1CCN(C(=O)Nc2cc3c(Nc4ccc(F)c(Cl)c4)ncnc3cc2O[C@H]2CCOC2)CC1")
6.33
>>> observed("COC(=O)/C=C/CNC(=O)Nc1cc2c(Nc3ccc(F)c(Cl)c3)ncnc2cc1O[C@H]1CCOC1")
6.39
